Listed here: items and their measured pEC50.
Target: 2-5A-dependent ribonuclease (Homo sapiens, UniProt Q05823)
Sequence (Q05823 whole entry): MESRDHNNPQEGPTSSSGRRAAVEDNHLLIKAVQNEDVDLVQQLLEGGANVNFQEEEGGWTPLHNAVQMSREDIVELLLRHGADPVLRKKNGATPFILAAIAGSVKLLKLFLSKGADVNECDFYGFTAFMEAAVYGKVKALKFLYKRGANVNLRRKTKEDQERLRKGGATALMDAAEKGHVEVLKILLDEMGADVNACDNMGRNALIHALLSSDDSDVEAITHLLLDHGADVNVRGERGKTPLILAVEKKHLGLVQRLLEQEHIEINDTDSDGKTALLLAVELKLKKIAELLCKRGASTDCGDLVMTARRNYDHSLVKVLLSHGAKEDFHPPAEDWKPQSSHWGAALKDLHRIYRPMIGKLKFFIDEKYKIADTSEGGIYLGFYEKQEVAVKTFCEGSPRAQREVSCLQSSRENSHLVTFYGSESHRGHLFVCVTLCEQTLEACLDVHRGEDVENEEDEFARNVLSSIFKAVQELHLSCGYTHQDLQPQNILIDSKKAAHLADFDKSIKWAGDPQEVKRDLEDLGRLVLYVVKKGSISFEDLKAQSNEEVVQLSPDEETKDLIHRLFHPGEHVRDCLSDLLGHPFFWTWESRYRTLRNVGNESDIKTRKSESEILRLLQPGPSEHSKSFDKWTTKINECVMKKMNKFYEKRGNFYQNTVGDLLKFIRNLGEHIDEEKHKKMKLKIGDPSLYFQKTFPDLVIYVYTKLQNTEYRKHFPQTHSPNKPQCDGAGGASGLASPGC
Assay: Activation of human RNase L expressed in Escherichia coli BL21 (DE3) cells assessed as RNA cleavage using Cy5-rC11-UU-C7-BHQ2 as substrate by FRET assay
pEC50: −log10 of the molar value.
READOUT LABEL: pEC50

smiles_structure=Nc1ncnc2c1ncn2[C@@H]1O[C@H](COP(=O)(O)O[C@@H]2[C@H](O)[C@@H](COP(=O)(O)O[C@@H]3[C@@H](O)[C@@H](COCP(=O)(O)O[C@@H]4[C@H](O)[C@@H](COP(=O)(O)O)O[C@H]4n4cnc5c(N)ncnc54)O[C@H]3n3cnc4c(N)ncnc43)O[C@H]2n2cnc3c(N)ncnc32)[C@@H](O)[C@H]1O observed_value="< 6.00"
smiles_structure=Nc1ncnc2c1ncn2[C@@H]1O[C@H](COP(=O)(O)O[C@@H]2[C@H](O)[C@@H](COP(=O)(O)O[C@@H]3[C@H](O)[C@@H](COP(=O)(O)CO[C@H]4[C@H](O)[C@@H](COP(=O)(O)O)O[C@H]4n4cnc5c(N)ncnc54)O[C@H]3n3cnc4c(N)ncnc43)O[C@H]2n2cnc3c(N)ncnc32)[C@@H](O)[C@H]1O observed_value="< 6.00"
